Reported solubility at 24 h values for the following compounds.
# EXPERIMENT_SUMMARY: Solubility in aqueous buffer
# Assay type: physicochemical
# STUDY_CONDITIONS: kinetic from dmso stock, pH 7, 24 h
PROPERTY_NAME: solubility at 24 h

In [3]: df
Out[3]:
                                   compound  observed_result
0  C[C@]12CCC/C(=C\C=C3\CC(O)C[C@H](O)C3)C1CC=C2C1(CC#CC(O)(C(F)(F)F)C(F)(F)F)CC1 (stereo partly shown) [Compound 3]           7.1 µM
1  C=C1/C(=C\C=C2/CCC[C@]3(C)C(C4(C/C=C\C(O)(C(F)(F)F)C(F)(F)F)CC4)=CCC23)CC(O)C[C@@H]1O (stereo partly shown) [Compound 8]           1.6 µM
2  CC(C)(O)CCCC1(C2=CCC3/C(=C/C=C4/CC(O)C[C@H](O)C4)CCC[C@]23C)CC1 (stereo partly shown) [Compound 9]          21.6 µM
3  C[C@]12CCC/C(=C\C=C3\CC(O)C[C@H](O)C3)C1CC=C2C1(C/C=C\C(O)(C(F)(F)F)C(F)(F)F)CC1 (stereo partly shown) [Compound 7]           4.1 µM

----------
# EXPERIMENT_SUMMARY: Determination of Maximum Tolerated Dose (MTD) in mice
# STUDY_CONDITIONS: mouse, in vivo, po; female C57BL/6 mice, p.o. daily for four days; highest dose without hypercalcemia (serum calcium >10.7 mg/dl)

COMPOUND	MTD at 4 days
C=C1/C(=C\C=C2/CCC[C@]3(C)C(C4(C/C=C/C(O)(C(F)(F)F)C(F)(F)F)CC4)=CCC23)CC(O)C[C@@H]1O (stereo partly drawn) [Compound 6]	0.3 µg/kg
C=C1/C(=C\C=C2/CCC[C@]3(C)C([C@H](C)CCCC(C)(C)O)CC[C@@H]23)C[C@@H](O)C[C@@H]1O (stereo partly drawn) [1,25(OH)2D3, 1,25-dihydroxycholecalciferol, reference compound]	0.3 µg/kg
C=C1/C(=C\C=C2/CCC[C@]3(C)C(C4(CC#CC(C)(C)O)CC4)=CCC23)CC(O)C[C@@H]1O (stereo partly drawn) [Compound 1]	10 µg/kg
C=C1/C(=C\C=C2/CCC[C@]3(C)C(C4(C/C=C\C(O)(C(F)(F)F)C(F)(F)F)CC4)=CCC23)CC(O)C[C@@H]1F (stereo partly drawn) [Compound 14]	1 µg/kg
C=C1/C(=C\C=C2/CCC[C@]3(C)C(C4(CC#CC(O)(C(F)(F)F)C(F)(F)F)CC4)=CCC23)CC(O)C[C@@H]1F (stereo partly drawn) [Compound 12]	0.3 µg/kg
C=C1/C(=C\C=C2/CCC[C@]3(C)C(C4(C/C=C/C(O)(C(F)(F)F)C(F)(F)F)CC4)=CCC23)CC(O)C[C@@H]1F (stereo partly drawn) [Compound 13]	3 µg/kg

----------
# EXPERIMENT_SUMMARY: Determination of Maximum Tolerated Dose (MTD) in mice
# STUDY_CONDITIONS: mouse, in vivo, po; female C57BL/6 mice, p.o. daily for four days; highest dose without hypercalcemia (serum calcium >10.7 mg/dl)
PROPERTY_NAME: MTD at 4 days (µg/kg)

>>> print(df.to_string())
                                   compound  property_name  observed_result
0  C[C@]12CCC/C(=C\C=C3\CC(O)C[C@H](O)C3)C1CC=C2C1(C/C=C\C(O)(C(F)(F)F)C(F)(F)F)CC1 (some centres unmarked)  MTD at 4 days              0.3
1  CC(C)(O)C#CCC1(C2=CCC3/C(=C/C=C4/CC(O)C[C@H](O)C4)CCC[C@]23C)CC1 (some centres unmarked)  MTD at 4 days               10
2  C=C1/C(=C\C=C2/CCC[C@]3(C)C(C4(C/C=C\C(O)(C(F)(F)F)C(F)(F)F)CC4)=CCC23)CC(O)C[C@@H]1O (some centres unmarked)  MTD at 4 days                1
3  C=C1/C(=C\C=C2/CCC[C@]3(C)C(C4(CC#CC(O)(C(F)(F)F)C(F)(F)F)CC4)=CCC23)CC(O)C[C@@H]1O (some centres unmarked)  MTD at 4 days              0.3
4  C=C1/C(=C\C=C2/CCC[C@]3(C)C(C4(CCCC(C)(C)O)CC4)=CCC23)CC(O)C[C@@H]1O (some centres unmarked)  MTD at 4 days                1
5  CC(C)(O)CCCC1(C2=CCC3/C(=C/C=C4/CC(O)C[C@H](O)C4)CCC[C@]23C)CC1 (some centres unmarked)  MTD at 4 days                1
6  C=C1/C(=C\C=C2/CCC[C@]3(C)C(C4(CC#CC(C)(C)O)CC4)=CCC23)CC(O)C[C@@H]1F (some centres unmarked)  MTD at 4 days              100
7  C[C@]12CCC/C(=C\C=C3\CC(O)C[C@H](O)C3)C1CC=C2C1(CC#CC(O)(C(F)(F)F)C(F)(F)F)CC1 (some centres unmarked)  MTD at 4 days              0.3

----------
Reported pIC50 values for the following compounds.
# Tested on: IFN-γ production by allogeneic PBMC
# EXPERIMENT_SUMMARY: IFN-γ production in the mixed leukocyte response (MLR)
# Type: cell-based
# STUDY_CONDITIONS: 120 h; MLR of allogeneic PBMC, 5 days, ELISA; read-out: INF-γ IC50
pIC50: −log10 of the molar value.

COMPOUND	TARGET_OF_ASSAY	pIC50
C=C1/C(=C\C=C2/CCC[C@]3(C)C(C4(C/C=C\C(O)(C(F)(F)F)C(F)(F)F)CC4)=CCC23)CC(O)C[C@@H]1O (stereo partly drawn)	IFN-γ production by allogeneic PBMC	10.48
C=C1/C(=C\C=C2/CCC[C@]3(C)C(C4(C/C=C/C(O)(C(F)(F)F)C(F)(F)F)CC4)=CCC23)CC(O)C[C@@H]1O (stereo partly drawn)	IFN-γ production by allogeneic PBMC	10.40
C=C1/C(=C\C=C2/CCC[C@]3(C)C([C@H](C)CCCC(C)(C)O)CC[C@@H]23)C[C@@H](O)C[C@@H]1O (stereo partly drawn) [1,25(OH)2D3, 1,25-dihydroxycholecalciferol, reference compound]	IFN-γ production by allogeneic PBMC	10.30
C=C1/C(=C\C=C2/CCC[C@]3(C)C(C4(C/C=C/C(O)(C(F)(F)F)C(F)(F)F)CC4)=CCC23)CC(O)C[C@@H]1F (stereo partly drawn)	IFN-γ production by allogeneic PBMC	10.19
C=C1/C(=C\C=C2/CCC[C@]3(C)C(C4(CC#CC(O)(C(F)(F)F)C(F)(F)F)CC4)=CCC23)CC(O)C[C@@H]1O (stereo partly drawn)	IFN-γ production by allogeneic PBMC	10.35
CC(C)(O)C#CCC1(C2=CCC3/C(=C/C=C4/CC(O)C[C@H](O)C4)CCC[C@]23C)CC1 (stereo partly drawn)	IFN-γ production by allogeneic PBMC	10.60

----------
# System: RT112
# EXPERIMENT_SUMMARY: Proliferation assay using bladder cancer cell lines: RT112
# Assay type: cell-based, human
# STUDY_CONDITIONS: Homo sapiens, RT-112; 72 h culture, CyQuant proliferation assay
Reported IC50 values for the following compounds.
PROPERTY_NAME: IC50 (µM)

>>> df
                                   compound  target_of_assay  value_relation_sign  observed_result
0  C=C1/C(=C\C=C2/CCC[C@]3(C)C(C4(CC#CC(O)(C(F)(F)F)C(F)(F)F)CC4)=CCC23)CC(O)C[C@@H]1F (stereo partly drawn)            RT112                    =             16.9
1  C=C1/C(=C\C=C2/CCC[C@]3(C)C(C4(C/C=C/C(O)(C(F)(F)F)C(F)(F)F)CC4)=CCC23)CC(O)C[C@@H]1F (stereo partly drawn)            RT112                    =               17
2  C[C@]12CCC/C(=C\C=C3\CC(O)C[C@H](O)C3)C1CC=C2C1(C/C=C/C(O)(C(F)(F)F)C(F)(F)F)CC1 (stereo partly drawn)            RT112                    =             14.5
3  CC(C)(O)C#CCC1(C2=CCC3/C(=C/C=C4/CC(O)C[C@H](O)C4)CCC[C@]23C)CC1 (stereo partly drawn)            RT112                    >               30
4  C=C1/C(=C\C=C2/CCC[C@]3(C)C(C4(C/C=C\C(O)(C(F)(F)F)C(F)(F)F)CC4)=CCC23)CC(O)C[C@@H]1F (stereo partly drawn)            RT112                    =               21
5  C=C1/C(=C\C=C2/CCC[C@]3(C)C(C4(CC#CC(C)(C)O)CC4)=CCC23)CC(O)C[C@@H]1O (stereo partly drawn)            RT112                    >               30

Value source: patent US20080318911A1
